measured.endpoint: melting point

Give the value of melting point reported for the following: Cc1cc(C2N(c3ccccc3)CCN2c2ccccc2)cc(C)c1O
166 to 167 °C

Let me know recorded melting point for N#CS/C=C\C(=O)N1CCCCC1 , thanks.
88 to 90 °C

Consider the compound CC(C)(C)OC(=O)NC1C(=O)N(OCc2ccccc2)C12CCC2 (configuration not stated) and give its recorded melting point.
156 to 157 °C

Kindly indicate its recorded melting point. Item: CN1C(=O)C2CC(c3ccc(N)cc3)(C2)C1=O
197 to 198 °C

// Input: O=C1O[C@](CCc2cccc(O)c2)(C2CCCC2)CC(O)=C1N(c1ccccc1)c1ccccc1 . Output its melting point only.
90 to 92 °C

Give recorded melting point. Cc1sc(C=O)c(C)c1C
45 to 46 °C

Write down melting point measured for item CCCCNc1c(C(=O)OCC)cnc2c1c(C)nc1cc(C)nn12
114 to 116 °C

For CS(=O)(=O)N1CCN2C(=O)N(c3cc(Cl)cc(Cl)c3)C(=O)C2(Cc2ccc(Br)cc2)C1 (configuration not stated) , write its melting point.
229 °C

Please report melting point for the following compound: O=C(NC(=O)C(c1ccccc1)c1ccccc1)OC1CCCC1
120 to 123 °C

Quickly give me recorded melting point for CCN(CC)CCSC1=C(C#N)C(c2ccccc2)(c2cccs2)C(=O)N1 (configuration not stated)
165 °C

Name the recorded melting point of the compound listed here: CCc1cccc(Nc2nc(NCc3ccc(C)o3)nc(OCC(F)(F)F)n2)c1
55 to 57 °C

Specify melting point for CNCc1cccc(C2CCN(c3cc4c(cc3F)c(=O)c(C(=O)O)cn4C3CC3)C2)c1 (configuration not stated) and stop.
239 to 240 °C

Look up and report measured melting point for this entry: Cc1noc(NS(=O)(=O)c2cc(Cl)sc2Cl)c1Br
135 to 138 °C

Specify melting point for CC1(C)CCNC(=O)C(Cl)(Cl)C1 and stop.
108 to 110 °C

Return value of melting point for input Cc1ccc(-c2cc(F)cc3c2NC(CN)CO3)c(C(F)(F)F)c1 (configuration not stated) , no commentary.
86 °C

Note melting point for the compound shown: C[C@@H](Nc1ncnc2[nH]c(-c3ccc(CO)cc3)cc12)c1ccccc1
> 300 °C

Return the recorded melting point value; entry: CC(=O)OC1(C(=O)CO)CCC2C3CC(C)C4=CC(=O)C=CC4(C)C3C(O)CC21C (configuration not stated)
198 to 201 °C

Give recorded melting point. CC(C)(C)c1cc(-c2ccc(F)cc2F)cc(C(=O)Nc2ccc(S(=O)(=O)C(F)(F)F)cc2Cl)c1O
114 to 115 °C

Quickly give me recorded melting point for Cn1c(COc2ccc(CC3SC(=O)NC3=O)cc2)nc2ccc(Oc3cccc(NC(=O)NC45CC6CC(CC(C6)C4)C5)c3)cc21 (configuration not stated)
227 to 231 °C

Tell me melting point reported for CCC(CC)Nc1c([N+](=O)[O-])cc(CC(=O)O)c(C(C)C)c1[N+](=O)[O-]
116 to 118 °C

Report measured melting point; entry is c1ccc(Cn2ccc(CN3CCC(c4ccccc4)(c4ccccc4)CC3)n2)cc1
167 to 168 °C

Check the records and state melting point for Cc1nc(N2CCN(CCC3CC3)C2=O)sc1C(=O)NCc1ccccc1
137 to 138 °C

Give me measured melting point, please, for this compound: CC(C)N(CCCN1C(=O)/C(=N/NC(N)=O)c2ccccc21)C(C)C
173 to 175 °C

Using the record for CCCCC1=NC2(CCCC2)C(=O)N1Cc1ccc(-c2ccccc2S(=O)(=O)Nc2onc(C)c2C)c(CC(C)C)c1 , state its measured melting point.
58 to 61 °C

For the compound Nc1ccc(-c2cc3c(N4CCc5ccccc54)ncnc3[nH]2)cc1 , report melting point.
> 300 °C

State its melting point for this compound: COc1cccc(Cc2ccc3nc(N)nc(N)c3c2)c1
207 to 209 °C

Give the reported value of melting point for this record: O=C(C=Cc1ccccc1F)C=Cc1ccccc1F
68 to 72 °C
